Biological target: T1, RecE564 WT (Escherichia coli K12, UniProt P15032 564-866)
T1 sequence: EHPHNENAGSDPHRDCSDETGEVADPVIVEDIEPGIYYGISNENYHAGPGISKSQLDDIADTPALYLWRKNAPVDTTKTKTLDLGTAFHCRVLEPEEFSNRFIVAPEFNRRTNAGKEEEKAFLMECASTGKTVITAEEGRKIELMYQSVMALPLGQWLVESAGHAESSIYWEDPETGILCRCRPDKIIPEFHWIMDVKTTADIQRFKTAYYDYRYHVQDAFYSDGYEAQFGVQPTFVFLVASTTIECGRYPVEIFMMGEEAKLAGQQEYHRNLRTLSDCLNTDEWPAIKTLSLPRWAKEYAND
Test: fluorescence anisotropy
pKd: −log10 of the molar value.

binder	pKd
F25 (dsDNA) DNA 1: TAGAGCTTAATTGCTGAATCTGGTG DNA 2: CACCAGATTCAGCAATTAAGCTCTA	7.15
